Listed next: entries and their corresponding MIC Streptococcus pyogenes (GC 4563).
system: Streptococcus sp.; experiment: in vitro antibacterial evaluation, MIC by broth dilution; type: cell-based; conditions: strain GC 4563; broth dilution, 18 hours at 35° C.
Numeric answer only, unit µg/mL assumed.

Reference set (2 entries):
| molecule | units-symbol | reading |
| --- | --- | --- |
| CC(c1ccccc1)C1NC(=O)CNC(=O)C(CO)NC(=O)C(C(O)C2CNC(=N)N2C2OC(CO)C(O)C(O)C2O)NC(=O)C(C(O)C2CNC(=N)N2)NC(=O)C(Cc2ccc(OC3OC(CO)C(OC4OC5COC(c6ccc(-c7ccsc7)cc6)OC5C(O)C4O)C(O)C3O)cc2)NC1=O (stereo not drawn) [Example 164] | µg/mL | 0.12 |
| CC(=O)Nc1cc(CC2NC(=O)C(C(C)c3ccccc3)NC(=O)CNC(=O)C(CO)NC(=O)C(C(O)C3CNC(=N)N3C3OC(CO)C(O)C(O)C3O)NC(=O)C(C(O)C3CNC(=N)N3)NC2=O)ccc1O (stereo not drawn) [Example 13] | µg/mL | 8 |

Pending molecule:
Return MIC Streptococcus pyogenes (GC 4563) for the following molecule: CCCCCCC(=O)Nc1cc(CC2NC(=O)C(C(C)c3ccccc3)NC(=O)CNC(=O)C(CO)NC(=O)C(C(O)C3CNC(=N)N3C3OC(CO)C(O)C(O)C3O)NC(=O)C(C(O)C3CNC(=N)N3)NC2=O)ccc1O (stereo not drawn) [Example 16] 16

// data source = patent US6914045B2
